# assay_comment: chemical genetic growth profiling, strain panel (AID 1159580);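 also: tested at 20 µM; growth read once vehicle control cultures reached saturation at 30 °C; 1 = growth at the plate median or of vehicle wells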
# test_context: S. cerevisiae deletion strains, growth OD, locus YDL101C, strain DUN1, hits give low values
Out of some 5,500 compounds screened, about 2,000 (36%) were called active. Another 18% or so got no clear call; they are omitted. This is one part of the list.
normalized growth less than 1 is class 1; normalized growth greater than or equal to 1 is class 0.

Worked examples follow.
| compound | class_assignment |
| --- | --- |
| CC(C)(C)c1cc(C(C)(C)C)n(-c2ccc(N=Cc3cc(Br)cc(Br)c3O)cc2)n1 | class 1 |
| O=c1n(CCCN2CCN(c3cccc(Cl)c3)CC2)nc2ccccn12 | class 1 |
| COc1ccc2c(=O)c(-c3cc4c(cc3OC)OCO4)coc2c1 | class 0 |
| O=C(Oc1ccc(F)cc1)c1cccs1 | class 0 |
| c1ccc2c(c1)-c1cccc3cccc-2c13 | class 1 |

Req: normalized growth under 1? Item: "CN1CCN(CCCN2c3ccccc3Sc3ccc(Cl)cc32)CC1"
Resp: class 1

Req: Take the compound "CCOC(=O)c1csc(N/N=C2/CCCc3ccccc32)n1" and say whether its normalized growth is less than 1.
Resp: class 1

Req: normalized growth strictly < 1 for this compound? CCC(=O)O[C@H]1CCC2C3CCc4cc(O)ccc4C3CC[C@@]21C (some centres undefined)
Resp: class 1

---

# assay_comment: chemical genetic growth profiling, strain panel (AID 1159580)
# test_context: S. cerevisiae deletion strains, growth OD, locus YOL147C, strain pex11
Among all 5,500 compounds or so, about 2,000 (36%) were called active. Another 18% or so got no clear call; they are omitted. No stated cut-off is given here; in the data, active means normalized growth mostly below about 0.91 (no sharp cut-off); inconclusive means no clear call, values can overlap the other calls; inactive means mostly above about 0.92. This is one part of the list.
Result category, one only: active, inactive

Observe how each entry below is paired with its result.
| molecule | class_assignment |
| --- | --- |
| O=c1ccc2cc(O[C@@H]3O[C@H](CO)[C@@H](O)[C@H](O)[C@H]3O)c(O)cc2o1 | inactive |
| COc1ccc2c(c1)[nH]c1c(C)nccc12 | inactive |
| COc1cc2ccc(=O)oc2c(O)c1O | inactive |
| CC(C)=CCOc1cc2oc(=O)ccc2cc1O | active |
| C=C(C)c1cc2cc(C(C)=O)c(O)cc2o1 | active |
| CN1Cc2c(N)cccc2C(c2ccccc2)C1 (configuration not stated) | inactive |
| CC1=C2CCC3C(CC[C@]4(C)C(=O)CCC34)[C@@]2(C)CCC1=O (some centres not stated) | inactive |
| COc1ccc(Cc2nccc3cc(OC)c(OC)cc23)cc1OC | inactive |

Req: Just curious, what result did "COc1cc2ccc(=O)oc2cc1O" get here?
Resp: inactive

Req: For CC(=O)O[C@@H]1CC2C(C)(C)C(=O)[C@@H]3O[C@@H]3[C@]2(C)C2CC[C@]3(C)C(=CC(=O)O[C@H]3c3ccoc3)[C@@]21C (some centres not stated) , what call appears in the results of this test?
Resp: inactive

Req: Answer briefly: the call reported for "CC(C)=CCOc1c2occc2cc2ccc(=O)oc12" in this assay.
Resp: active

Req: What did the test return for "COc1ccc2ccc(=O)oc2c1CC=C(C)C" ?
Resp: active

---

Reported values of normalized growth for individual entries
# assay_comment: chemical genetic growth profiling, strain panel (AID 1159580)
# test_context: S. cerevisiae deletion strains, growth OD, locus YNL209W, strain ssb2, hits give low values
Out of some 5,500 compounds screened, about 2,000 (36%) were called active. Another 18% or so got no clear call; they are omitted. This is one part of the list.
Format: numeric value only, no unit, no commentary.

Record excerpt, results attached:
| compound | normalized growth |
| --- | --- |
| Cn1nnnc1SCC1=C(C(=O)O)N2C(=O)C(NC(=O)C(OC=O)c3ccccc3)C2SC1 (stereo not given) | 1 |
| O=c1[nH]c2ccccc2n1C1CCN(CCCC(c2ccc(F)cc2)c2ccc(F)cc2)CC1 | 1.02 |
| O=c1[nH]c2ccccc2n1CCCN1CCC(n2c(=O)[nH]c3cc(Cl)ccc32)CC1 | 0.992 |

# normalized growth (compound: "CCS(=O)(=O)CCn1c([N+](=O)[O-])cnc1C" ) is 0.987

For this compound ( "COc1ccc(Cc2nccc3cc(OC)c(OC)cc23)cc1OC" ), measured normalized growth is 1

---

# assay_comment: chemical genetic growth profiling, strain panel (AID 1159580);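 also: tested at 20 µM; growth read once vehicle control cultures reached saturation at 30 °C; 1 = growth at the plate median or of vehicle wells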
# test_context: S. cerevisiae deletion strains, growth OD, locus YJL115W, strain asf1, hits give low values
The whole screen tested about 5,500 compounds, of which about 2,000 (36%) were called active. Roughly 18% stayed inconclusive and do not appear here. This is one part of the list.
Catalogue of compounds with associated normalized growth

Guide cases for normalized growth, answers given:
| compound | result_type | result |
| --- | --- | --- |
| Cn1c([N+](=O)[O-])cnc1COC(N)=O | normalized growth | 0.999 (inactive) |
| CC(C)=CCC1=C(O)c2ccccc2C(=O)C1=O | normalized growth | 0.861 (active) |
| CC(=O)OCC(=O)[C@@]1(O)CCC2C3CCC4=CC(=O)CC[C@]4(C)[C@@]3(F)[C@@H](O)C[C@@]21C (stereo not given in full) | normalized growth | 1.03 (inactive) |

normalized growth reading for "CC1(C)C=Cc2c(cc3occ(-c4ccc5c(c4)OCO5)c(=O)c3c2O)O1" : 1.01 (inactive)

get_value(item= "COc1ccc2c(=O)c(-c3cc4c(cc3OC)OCO4)coc2c1" , readout=normalized growth) returns 1.02 (inactive)

GET /value?item= "Cc1c(N(C)CS(=O)(=O)O)c(=O)n(-c2ccccc2)n1C" &field=normalized growth returns 1 (inactive)

Field normalized growth (entry "COc1c2c(cc3occ(-c4ccc5c(c4)OCO5)c(=O)c13)OC(C)(C)C=C2" ) reads 1.02 (inactive)

For this compound ( "COc1cc2c(cc1-c1coc3c4c(c(OC)cc3c1=O)OC(C)(C)C=C4)OCO2" ), measured normalized growth is 1.04 (inactive)

"CC(C)=CCc1c(O)cc2occ(-c3ccc4c(c3)OCO4)c(=O)c2c1O" has a reported normalized growth of 1.01 (inactive)

response.value for COC(=O)C[C@H]1C(C)(C)[C@@H](OC(C)=O)[C@@H]2CC3C4CC(=O)O[C@@H](c5ccoc5)[C@]4(C)CCC3[C@@]1(C)C2=O (stereo not given in full) (field: normalized growth) = 1.01 (inactive)

---

# assay_comment: chemical genetic growth profiling, strain panel (AID 1159580);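 also: tested at 20 µM; growth read once vehicle control cultures reached saturation at 30 °C; 1 = growth at the plate median or of vehicle wells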
# test_context: S. cerevisiae deletion strains, growth OD, locus YPR111W, strain DBF20, hits give low values
In all, about 5,500 compounds went through this assay and about 2,000 (36%) were called active. About 18% were inconclusive and are not listed. The list shows a part of the results.
result_type: normalized growth
// return a plain number; no unit text

Illustrative cases are given below, each with its answer.
| molecule | normalized growth |
| --- | --- |
| O=C(NCc1ccc(F)c(Cl)c1)Nc1csc([N+](=O)[O-])c1 | 0.977 |
| COc1cccc(C(=O)C(C#N)=C(SC)SC)c1 | 0.902 |
| Cc1nn(Cc2cccc(C(=O)O/N=C(/N)c3ccc(Cl)cc3)c2)c(C)c1Br | 0.995 |
| N#CC(C#N)=NNc1ccc(-n2ccc(C(F)(F)F)n2)cc1 | 0.878 |
| N/C(=N/OC(=O)c1ccccc1Cl)c1cccc(CS(=O)(=O)c2ccc(Cl)cc2)c1 | 0.988 |
| N#C/C(=N/Nc1ccc(Cl)cc1)C(N)=S | 0.583 |

Noted for "Nc1ccccc1C(=O)N/N=C\c1cc(Cl)cc(Cl)c1O" : its normalized growth reads 0.946

Memo: "O=C(c1ccc(Cl)cc1)N1CCN(c2ccc(C(F)(F)F)cn2)CC1" , reported normalized growth: 0.955

Please fill in: normalized growth reported for "O=C(Oc1ccc(C2SCCS2)cc1)c1cccs1" = 1

Entry FC(F)(F)c1ccc(C2Sc3ccccc3N=C3c4ccccc4CC32)cc1 (stereo unspecified) — recorded normalized growth = 0.985

normalized growth measured on "CC(C)(C)c1cc(C(=O)/C(C#N)=N\Nc2ccc(Cl)cc2)no1" = 0.874

---

# assay_comment: chemical genetic growth profiling, strain panel (AID 1159580);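 also: tested at 20 µM; growth read once vehicle control cultures reached saturation at 30 °C; 1 = growth at the plate median or of vehicle wells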
# test_context: S. cerevisiae deletion strains, growth OD, locus YOL136C, strain PFK27, hits give low values
Out of some 5,500 compounds screened, about 2,000 (36%) were called active. Roughly 18% stayed inconclusive and do not appear here. Some of the results follow.
result_type: normalized growth
Would you mind answering with just the numeric figure?

Here is how some compounds turned out for normalized growth.
| compound | normalized growth |
| --- | --- |
| CC(/C=C/c1ccccc1)=N/OC(=O)c1ccccc1Cl | 0.849 |
| NNC(=O)COc1ccc(C2SCCS2)cc1 | 0.159 |
| N#C/C(=C\C=C\c1ccccc1)c1nc2ccccc2[nH]1 | 0.885 |
| N/C(=N/OC(=O)c1ccccc1Cl)c1ccc2nonc2c1 | 0.983 |
| Oc1ccc(-n2nnnc2SCc2ccc(OC(F)(F)F)cc2)cc1 | 0.75 |

Recorded result, "O=C(O)c1cccc2cccc(C(=O)O)c12" , normalized growth: 0.0961
